Target: Lewy body α-Synuclein (human, UniProt P37840 1-140)
Test: IHC, human amygdala; OD of Lewy bodies / OD of tissue
measurement name: LB Discrimination Index

9096 (antibody, IgG2b, V domains shown) VH: EVQLVESGGGLVKPGGSLKLSCAASGFTFSGYAMSWVRQTPEKRLEWVATISNGGSYTYYPDSVKGRFTISRDNAKKTLYLQMSSLRSEDTAMYYCTRRAATRGYFDYWGQGTTLTVSS VL: QIVLTQSPAIMSASPGEKVTMTCSASSSVSYMYWYQQKPGSSPRLLIYDTSKLASGVPVRFSGSGSGTSYSLTISRMEAEDAATYYCQQWRSYPPTFGAGTKLELK
1.3

Hey, can you go through the list below and give me LB Discrimination Index for every item?
1. 9052 (antibody, IgG2b, V domains shown) VH: EVQLVESGGVLVKPGGSLKLSCAASGFTFSSFAMSWVRQTPEKRLEWVATISNGGSYTYYPDSVKGRFTISRDNAKNTLYLRMSSLRSEDTAMYYCVRRATTRGYFDYWGQGTTLTVSS VL: QIFLTQSPAIMSASPGEKVTMTCSASSSVSYMYWYQQKPGSSPRLLIYDSSKLASGVPVQFSGSGSGTSYSLTISRMEAEDAATYYCQQWRSYPPTFGAGTKLELK
2. 9018 (antibody, IgG2b, V domains shown) VH: EVMLVESGGGLVKPGGSLKLSCAASGFTFSSYAMSWVRQTPEKRLEWVATISTGGGYTYYPDSVKGRFTVSRDNAKNTLYLQMSSLRSEDTAMYYCARRGTSRGYFDVWGAGTTVTVSS VL: QIILTQSPAIMSASPGEKVTMTCSASSSVSYMYWYQQKPESSPRLLIYDTSNLASGVPVRFSGSGSGTSYFLTISRMEAEDAATYYCQQWKTYPPTFGGGTRLEIK
3. 9064 (antibody, IgG1, V domains shown) VH: EVHLVESGGGLVQPKGSLKLSCAASGFTFNTYAMHWVRQAPGKGLEWVARIRNKSNNYATYYADSVKDRFTISRDDSQSMLFLQMDNLKTEDTAIYYCVRGGLSPFDYWGQGTTLTVSS VL: QIVLTQSPAIMSASPGEKVTMTCSASSSVTYMHWYQQKSGTSPKRWIYDTSKLASGVPARFSGSGSGTSYSLTISSMEAEDAATYYCQQWSSNPPTFGGGTKLEIR

Ans:
1.74
1.78
1.95
